- Test system: RAW264.7
- assay protocol: Cytotoxicity against mouse RAW264.7 cells at 30 uM after 24 hrs in absence of LPS by MTT assay
- Assay type: cell-based
- settings: raw264.7, 24 h
readout type: Activity

[[record]]
compound = "C=CCCCCCCCCC/C=C1/C(=O)O[C@H](C)[C@H]1O"
result = "Non-Toxic"

[[record]]
compound = "CCCCC/C=C\\C/C=C\\CCCCC/C=C1/C(=O)O[C@H](C)[C@H]1O"
result = "Non-Toxic"

[[record]]
compound = "C=C/C=C/CCCCCCCC/C=C/C1=CC(C)OC1=O (stereo unspecified)"
result = "Non-Toxic"

[[record]]
compound = "C#CCCCCCCCC/C=C/[C@H]1C(=O)O[C@@H](C)[C@H]1O [LITSEALACTONE B]"
result = "Non-Toxic"

[[record]]
compound = "C=CCCCCCCCCC/C=C1\\C(=O)O[C@H](C)[C@H]1O"
result = "Non-Toxic"


Now take the following compound into account.
Request: What value of Activity has been recorded for this entry: C=CCCCCCCCC/C=C/[C@H]1C(=O)O[C@H](C)[C@@H]1O
Response: Non-Toxic
